Reported values: IC50 for NAMPT (Homo sapiens, UniProt P43490), one per item.

Compound: CC(C)C(=O)N1CC(Oc2ccc(NC(=O)NCc3ccn4ccnc4c3)cc2)C1
IC50 / nM: 0.227
//
Compound: CC(C)C(=O)N1CCC(c2ncc(C(=O)NCc3ccn4ccnc4c3)s2)C1 (stereo not shown)
IC50 / nM: 1.12
//
Compound: O=C(NCc1ccc2nccn2c1)c1ccc(C2=CCN(C(=O)C3CCC(F)(F)CC3)CC2)cc1
IC50 / nM: 0.476
//
Compound: CC(C)(O)Cn1cc(-c2ccc(C(=O)NCc3ccc4nccn4c3)s2)cn1
IC50 / nM: 0.414

---

Target Or System: NAMPT (human, recombinant, C-terminally His-tagged) (Homo sapiens, UniProt P43490)
Sequence (P43490 whole entry): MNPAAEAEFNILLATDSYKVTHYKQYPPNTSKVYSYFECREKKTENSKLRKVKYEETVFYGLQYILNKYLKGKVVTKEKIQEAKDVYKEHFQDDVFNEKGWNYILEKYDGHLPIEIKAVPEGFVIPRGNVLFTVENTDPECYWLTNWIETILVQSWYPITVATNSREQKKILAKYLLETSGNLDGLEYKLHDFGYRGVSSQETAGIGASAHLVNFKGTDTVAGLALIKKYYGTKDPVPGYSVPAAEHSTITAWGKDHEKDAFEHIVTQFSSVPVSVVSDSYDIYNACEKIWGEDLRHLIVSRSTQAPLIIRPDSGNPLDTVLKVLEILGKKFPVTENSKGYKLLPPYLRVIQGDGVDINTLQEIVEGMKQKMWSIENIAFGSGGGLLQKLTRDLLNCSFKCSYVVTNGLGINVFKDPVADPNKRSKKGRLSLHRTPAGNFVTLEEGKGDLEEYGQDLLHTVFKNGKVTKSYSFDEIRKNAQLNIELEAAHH
Protocol Summary: Time-Resolved Fluorescence Resonance Energy Transfer (TR-FRET) Binding Assay of NAMPT
Conditions Used: without substrates; 6.8 nM NAMPT, 200 nM probe, 3 hours equilibration
Catalogue of log10 IC50 readings, one per entry.
Measured Property: log10 IC50 (log10 of the value in µM)

Compound: N#Cc1ccccc1C(=O)N1CCC(c2ccc(C(=O)NCc3ccn4ccnc4c3)cc2)CC1 [Example 737]
log10 IC50: -1.15
//
Compound: O=C(NCc1ccn2ccnc2c1)c1ccc(C2CCN(C(=O)CC(F)(F)F)CC2)s1 [Example 572]
log10 IC50: -1.29
//
Compound: COc1cc(CCC(=O)N(CC2CCCO2)c2ncc(C(=O)NCc3ccc4nccn4c3)s2)on1 (centres unmarked) [Example 127]
log10 IC50: -1.28
//
Compound: N#CC1(C(=O)N2CCC(c3ccc(C(=O)NCc4ccn5ccnc5c4)cc3)CC2)CC1 [Example 514]
log10 IC50: -0.43
//
Compound: O=C(NCc1ccn2ccnc2c1)c1ccc(-c2cnn(C[C@@H]3CCCO3)c2)s1 [Example 397]
log10 IC50: -1.75
//
Compound: CC(C)C(=O)N1CCC(c2ccc(C(=O)NCc3cn4ccnc4cn3)cc2)CC1 [Example 811]
log10 IC50: -1.00
//
Compound: O=C(NC1(c2ccc(C(=O)NCc3ccn4ccnc4c3)s2)CCC1)c1ccccc1 [Example 471]
log10 IC50: 0.54
//
Compound: CC(C)(C)OC(=O)N1CCC(Cn2cc(-c3ccc(C(=O)NCc4ccn5ccnc5c4)s3)cn2)CC1 [Example 466]
log10 IC50: -1.13

---

Target Or System: NAMPT (human, recombinant, C-terminally His-tagged) (Homo sapiens, UniProt P43490)
Protocol Summary: Time-Resolved Fluorescence Resonance Energy Transfer (TR-FRET) Binding Assay of NAMPT
Conditions Used: without substrates; 6.8 nM NAMPT, 200 nM probe, 3 hours equilibration
pIC50: −log10 of the molar value.
Measured Property: pIC50

Molecule: O=C(Nc1ccc(C2=CCN(C(=O)CN3CCOCC3)CC2)cc1)Nc1ccc2nccn2c1
Result Number: 5.93
//
Molecule: O=C(NCc1ccc2nccn2c1)c1cnc(N(CC2CCCO2)C(=O)CCc2cc(Cl)no2)s1 (centres unmarked)
Result Number: 6.99
//
Molecule: N#Cc1cccc(C(=O)N2CCC(c3ccc(C(=O)NCc4ccn5ccnc5c4)cc3)C2)c1 (centres unmarked)
Result Number: 5.99
//
Molecule: Cc1noc(C)c1CC(=O)N(CC1CCCO1)c1ncc(C(=O)NCc2ccc3nccn3c2)s1 (centres unmarked)
Result Number: 7.51
//
Molecule: CC(C)(C)C(=O)N1CCC(c2ccc(C(=O)NCc3ccn4ccnc4c3)s2)C1 (centres unmarked)
Result Number: 7.26
//
Molecule: O=C(NCc1ccn2ccnc2c1)c1ccc(OC2CCN(C(=O)[C@@H]3CCCO3)CC2)cc1
Result Number: 5.61
//
Molecule: CC[C@H](C)C(=O)N1CC[C@H](Oc2ccc(C(=O)NCc3ccn4ccnc4c3)cc2)C1
Result Number: 5.50
//
Molecule: CC(C)OCC(=O)N1CCC(c2ccc(NC(=O)NCc3ccn4ccnc4c3)cc2)C1 (centres unmarked)
Result Number: 6.39
